# Measured target: Human recombinant Acetyl-CoA Carboxylase 1 (ACC1) (Homo sapiens)
# Test method notes: Assay X: ACC1 inhibition, inorganic phosphate (malachite green)
# Format: biochemical
# Condition summary: Assay X: 37° C., 1.5 h, 5 min pre-incubation
Reported metric: IC50 (µM)

Smiles structure | IC50, µM
CN(C)CCNc1ccc(-c2cc(C(=O)NC[C@H]3CC[C@H](CNC(=O)O[C@H]4CCOC4)CC3)c3ccccc3n2)cn1 | 1.6

1 = COCCNCCC1CCN(c2cc(C(=O)NC[C@H]3CC[C@H](CNC(=O)OC(C)(C)C)CC3)c3ccccc3n2)CC1
2 = CN(C)C(=O)COC1CCN(c2cc(C(=O)NC[C@H]3CC[C@H](CNC(=O)OC(C)(C)C)CC3)c3ccccc3n2)CC1
3 = CC(C)(C)OC(=O)NC[C@H]1CC[C@H](CNC(=O)c2cc(-c3ccc(N4CCNC(=O)C4)nc3)nc3ccccc23)CC1
[ask] Sort these molecules on IC50 so the largest reading comes first. Respond with the label ranking, as requested.
[reply] 2, 1, 3

Recorded values, source patent US20090306133A1.
